# Tested on: OXPHOS gene expression
# Assay type: cell-based, mouse
# setup-conditions: composite Z-score vs DMSO; Conc 20 μM
# if measured GE-HTS < -0.009: YES  # else: NO

Solved entries (count: 3):
compound: CC(=O)c1cc(CC=C(C)C)c(O)c(CC=C(C)C)c1 [3,5-diprenyl-4-hydroxyacetophenone]
label-value: NO

compound: CCCCCC1C(=O)CCC1CC(=O)OC (centres unmarked) [dihydrojasmonic acid, methyl ester]
label-value: NO

compound: CC(C)[C@@H](C)C=C[C@@H](C)[C@H]1CC[C@H]2C3=CCC4CC(=O)CC[C@]4(C)[C@H]3CC[C@]12C (some centres unmarked)
label-value: YES

Problem: Decide: GE-HTS of `CN[C@@H](C)[C@H](O)c1ccccc1` strictly below -0.009?
Result: YES

====

Measured Viability, listed per entry.
# Test system: C2C12 myotubes
# setup-conditions: composite Z-score vs DMSO wells; Conc 20 μM
Lab note: jot down the number only; don't add units.

Would you please look over these solved cases?
molecule: CC(=O)N[C@@H](CC(=O)N[C@@H](CCC(=O)O)C(=O)O)C(=O)O [spaglumic acid]
study-system: C2C12 myotubes
reported-result: −0.009

molecule: OCc1ccccc1O [salicyl alcohol]
study-system: C2C12 myotubes
reported-result: 0.377

molecule: CSCC[C@H](NC=O)C(=O)N[C@@H](CC(C)C)C(=O)N[C@@H](Cc1ccccc1)C(=O)O [N-formylmethionyl-leucylphenylalanine]
study-system: C2C12 myotubes
reported-result: 0.354

molecule: CCCOc1ccccc1-c1nc2nn[nH]c2c(=O)[nH]1 [zaprinast]
study-system: C2C12 myotubes
reported-result: 0.602

molecule: Oc1c(Cl)cc(Cl)c(Cl)c1Cc1c(O)c(Cl)cc(Cl)c1Cl [hexachlorophene]
study-system: C2C12 myotubes
reported-result: −3.480

molecule: Cc1onc(-c2c(Cl)cccc2Cl)c1C(=O)N[C@@H]1C(=O)N2[C@@H]1SC(C)(C)[C@@H]2C(=O)O [dicloxacillin sodium]
study-system: C2C12 myotubes
reported-result: −0.214

Problem: Respond only with Viability recorded for O=c1cc(-c2ccccc2)oc2cc(O)cc(O)c12 [chrysin]
Result: −0.802

Problem: Quickly give me recorded Viability for CC(C)(Sc1cc(C(C)(C)C)c(O)c(C(C)(C)C)c1)Sc1cc(C(C)(C)C)c(O)c(C(C)(C)C)c1 [probucol]
Result: −0.586

Problem: Supply measured Viability of CC(NCCC(c1ccccc1)c1ccccc1)c1ccccc1 (stereo not drawn) [fendiline] in your reply.
Result: −0.080

====

# System: mitochondrial membrane potential
# Assay type: cell-based, mouse
# setup-conditions: composite Z-score vs mock-treated (DMSO) wells; Conc 20 μM
Entries and their ΔΨm

molecule: CC(=O)O[C@@H]1C[C@H]2C(C)(C)C(=O)CC[C@]2(C)[C@H]2CC[C@@]3(C)[C@H](c4ccoc4)OC(=O)[C@H]4O[C@]43[C@@]21C [dihydrogedunin]
ΔΨm: 1.079
--
molecule: CC(=O)[C@H]1CC[C@H]2[C@@H]3CCC4C[C@H](O)CC[C@]4(C)[C@H]3C[C@H](O)[C@]12C (stereo partly drawn) [dihydroxy (3alpha,12alpha)pregnan-20-one]
ΔΨm: −0.540

Read the next record carefully.
Problem: Find the measured ΔΨm of `COc1ccc(-c2coc3c(OC)c(OC)cc(OC)c3c2=O)cc1` and report it.
Result: 0.413
